subject-of-test: T1, Recombinant Human DLL4 (human, UniProt Q9NR61 27-524)
T1 construct: Bought from R&D Systems; also called delta-like protein 4; rHuman DLL4
measurement-description: ECL Multispot (MSD) assay; antigen spotted on plate, Fab in solution;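 also: fab bound 1 h at 20 °C, detected by TAG-labelled antibody electrochemiluminescence, signal relative to each well's blank, ratio of 4 or more marks a hit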
metric: ECL signal

binder	metric	value-reported
Fab VH1-46_IGHD6-6*01_IGHJ1*01 S102A/S103P/S104F/H111F (APFF) & L6_IGKJ1*01 S28A (Fab, V domains shown, Fab made in E. coli; the variable domains were cloned into Plasmid A (CH1, His and Flag tags) and Plasmid C (kappa CL); also called APFF / S28A) VH: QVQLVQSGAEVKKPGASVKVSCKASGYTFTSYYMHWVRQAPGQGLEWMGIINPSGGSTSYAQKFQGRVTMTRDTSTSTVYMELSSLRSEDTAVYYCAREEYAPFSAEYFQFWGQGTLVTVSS VL: EIVLTQSPATLSLSPGERATLSCRASQAVSSYLAWYQQKPGQAPRLLIYDASNRATGIPARFSGSGSGTDFTLTISSLEPEDFAVYYCQQRSNWPPWTFGQGTKVEIKR	ECL signal	157000
Fab VH1-46_IGHD6-6*01_IGHJ1*01 S102A/S103P/S104F/H111F (APFF) & L6_IGKJ1*01 S28P (Fab, V domains shown, Fab made in E. coli; the variable domains were cloned into Plasmid A (CH1, His and Flag tags) and Plasmid C (kappa CL); also called APFF / S28P) VH: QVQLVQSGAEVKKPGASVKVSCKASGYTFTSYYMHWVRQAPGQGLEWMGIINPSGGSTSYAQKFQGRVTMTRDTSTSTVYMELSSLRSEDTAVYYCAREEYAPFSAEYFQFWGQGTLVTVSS VL: EIVLTQSPATLSLSPGERATLSCRASQPVSSYLAWYQQKPGQAPRLLIYDASNRATGIPARFSGSGSGTDFTLTISSLEPEDFAVYYCQQRSNWPPWTFGQGTKVEIKR	ECL signal	178000
Fab VH1-46_IGHD6-6*01_IGHJ1*01 S102A/S103P/S104F/H111F (APFF) & L6_IGKJ1*01 S28F (Fab, V domains shown, Fab made in E. coli; the variable domains were cloned into Plasmid A (CH1, His and Flag tags) and Plasmid C (kappa CL); also called APFF / S28F) VH: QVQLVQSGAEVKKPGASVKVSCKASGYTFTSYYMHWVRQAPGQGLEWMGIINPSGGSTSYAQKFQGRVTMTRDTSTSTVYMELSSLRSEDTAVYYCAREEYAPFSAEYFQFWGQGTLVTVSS VL: EIVLTQSPATLSLSPGERATLSCRASQFVSSYLAWYQQKPGQAPRLLIYDASNRATGIPARFSGSGSGTDFTLTISSLEPEDFAVYYCQQRSNWPPWTFGQGTKVEIKR	ECL signal	134000
Fab VH1-46_IGHD6-6*01_IGHJ1*01 S102A/S103P/S104F/H111F (APFF) & L6_IGKJ1*01 S28K (Fab, V domains shown, Fab made in E. coli; the variable domains were cloned into Plasmid A (CH1, His and Flag tags) and Plasmid C (kappa CL); also called APFF / S28K) VH: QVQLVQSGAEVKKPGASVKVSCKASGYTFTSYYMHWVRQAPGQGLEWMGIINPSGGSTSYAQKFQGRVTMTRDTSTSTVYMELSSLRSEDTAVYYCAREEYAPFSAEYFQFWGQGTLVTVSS VL: EIVLTQSPATLSLSPGERATLSCRASQKVSSYLAWYQQKPGQAPRLLIYDASNRATGIPARFSGSGSGTDFTLTISSLEPEDFAVYYCQQRSNWPPWTFGQGTKVEIKR	ECL signal	124000
Fab VH1-46_IGHD6-6*01_IGHJ1*01 S102A/S103P/S104F/H111F (APFF) & L6_IGKJ1*01 S28G (Fab, V domains shown, Fab made in E. coli; the variable domains were cloned into Plasmid A (CH1, His and Flag tags) and Plasmid C (kappa CL); also called APFF / S28G) VH: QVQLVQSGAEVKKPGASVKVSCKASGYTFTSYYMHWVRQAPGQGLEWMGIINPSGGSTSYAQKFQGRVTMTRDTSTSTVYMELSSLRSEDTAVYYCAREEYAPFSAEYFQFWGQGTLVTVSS VL: EIVLTQSPATLSLSPGERATLSCRASQGVSSYLAWYQQKPGQAPRLLIYDASNRATGIPARFSGSGSGTDFTLTISSLEPEDFAVYYCQQRSNWPPWTFGQGTKVEIKR	ECL signal	183000
Fab VH1-46_IGHD6-6*01_IGHJ1*01 S102A/S103P/S104F/H111F (APFF) & L6_IGKJ1*01 S28Q (Fab, V domains shown, Fab made in E. coli; the variable domains were cloned into Plasmid A (CH1, His and Flag tags) and Plasmid C (kappa CL); also called APFF / S28Q) VH: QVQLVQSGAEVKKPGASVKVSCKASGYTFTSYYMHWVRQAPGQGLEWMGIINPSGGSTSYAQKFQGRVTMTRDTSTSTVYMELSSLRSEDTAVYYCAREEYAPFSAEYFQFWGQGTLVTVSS VL: EIVLTQSPATLSLSPGERATLSCRASQQVSSYLAWYQQKPGQAPRLLIYDASNRATGIPARFSGSGSGTDFTLTISSLEPEDFAVYYCQQRSNWPPWTFGQGTKVEIKR	ECL signal	133000
Fab VH1-46_IGHD6-6*01_IGHJ1*01 S102A/S103P/S104F/H111F (APFF) & L6_IGKJ1*01 S28V (Fab, V domains shown, Fab made in E. coli; the variable domains were cloned into Plasmid A (CH1, His and Flag tags) and Plasmid C (kappa CL); also called APFF / S28V) VH: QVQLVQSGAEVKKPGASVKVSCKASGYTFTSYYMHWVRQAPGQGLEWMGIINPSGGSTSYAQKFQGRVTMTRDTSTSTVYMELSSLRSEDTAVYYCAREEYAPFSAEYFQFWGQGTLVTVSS VL: EIVLTQSPATLSLSPGERATLSCRASQVVSSYLAWYQQKPGQAPRLLIYDASNRATGIPARFSGSGSGTDFTLTISSLEPEDFAVYYCQQRSNWPPWTFGQGTKVEIKR	ECL signal	83100

Numbers sourced from patent US20120316071A1.
